Target: T1, Vitamin D binding protein (DBP) (Homo sapiens (Human)) (UniProt P02774)
T1 sequence: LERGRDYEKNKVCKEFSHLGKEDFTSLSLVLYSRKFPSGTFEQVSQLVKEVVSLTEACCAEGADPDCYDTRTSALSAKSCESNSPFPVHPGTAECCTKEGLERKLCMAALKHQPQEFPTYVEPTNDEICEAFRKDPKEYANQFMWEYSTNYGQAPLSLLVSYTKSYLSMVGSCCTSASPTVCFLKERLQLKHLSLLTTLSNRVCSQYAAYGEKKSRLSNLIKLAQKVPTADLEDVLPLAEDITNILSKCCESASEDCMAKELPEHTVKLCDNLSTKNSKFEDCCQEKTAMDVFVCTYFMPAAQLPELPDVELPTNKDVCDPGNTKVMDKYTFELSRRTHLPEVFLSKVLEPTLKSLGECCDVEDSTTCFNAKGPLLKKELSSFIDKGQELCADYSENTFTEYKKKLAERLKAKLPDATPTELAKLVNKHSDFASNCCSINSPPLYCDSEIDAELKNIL
Test: BLI (Octet Red96), biotinylated EXT608 on streptavidin tips, DBP 0-75 µM, steady-state fit
attribute_measured: Kd (µM)
Write the number in µM without appending the unit.

Request: Tell me measured Kd for SVSEIQLMHNLGKHLNSMERVEWLRKKLQDVHNFC (C-terminal Cys (position 35) carries succinimido-propionylamino-PEG36-propionyl-aminopropyl-25-hydroxy-Vitamin D on its thiol; C-terminal amide (-NH2)) [EXT608 (PTH(1-34)-Cys-PEG36-25-hydroxy-vitamin D conjugate, C-terminal amide, R = NH2)] please.
Response: 5.2
